Target: EPHB1 (UniProt P54762)
Sequence (P54762 whole entry, looked up): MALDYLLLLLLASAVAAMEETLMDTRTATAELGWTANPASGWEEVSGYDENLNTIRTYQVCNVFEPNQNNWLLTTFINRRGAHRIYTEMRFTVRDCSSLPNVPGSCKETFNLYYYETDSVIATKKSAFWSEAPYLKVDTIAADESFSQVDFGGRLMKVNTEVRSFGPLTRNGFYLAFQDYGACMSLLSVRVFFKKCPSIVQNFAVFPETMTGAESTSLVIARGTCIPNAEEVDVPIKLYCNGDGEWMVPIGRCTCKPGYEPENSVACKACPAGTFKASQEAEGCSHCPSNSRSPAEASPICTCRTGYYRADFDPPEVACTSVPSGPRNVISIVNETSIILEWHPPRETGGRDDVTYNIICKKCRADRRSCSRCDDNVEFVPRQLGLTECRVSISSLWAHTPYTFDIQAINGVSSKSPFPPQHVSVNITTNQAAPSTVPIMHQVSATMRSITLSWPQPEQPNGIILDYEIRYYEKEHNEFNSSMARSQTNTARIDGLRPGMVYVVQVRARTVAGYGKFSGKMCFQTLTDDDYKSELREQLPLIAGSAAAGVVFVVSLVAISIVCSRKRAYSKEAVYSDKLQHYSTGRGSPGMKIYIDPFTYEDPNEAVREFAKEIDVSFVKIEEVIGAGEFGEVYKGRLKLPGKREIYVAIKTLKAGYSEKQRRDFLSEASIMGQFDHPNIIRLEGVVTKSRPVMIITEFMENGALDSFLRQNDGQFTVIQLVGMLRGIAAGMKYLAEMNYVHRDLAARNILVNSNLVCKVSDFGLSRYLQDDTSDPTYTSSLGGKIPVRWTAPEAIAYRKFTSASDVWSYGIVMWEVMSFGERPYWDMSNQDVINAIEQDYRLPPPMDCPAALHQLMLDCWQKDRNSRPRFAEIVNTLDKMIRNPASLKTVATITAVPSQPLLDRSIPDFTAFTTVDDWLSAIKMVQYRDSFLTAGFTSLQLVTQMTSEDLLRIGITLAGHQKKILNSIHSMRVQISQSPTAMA
Experiment: phosphorylation enrichment, bacterial display (enrichment ratio); higher = better substrate or ligand; peptides without Tyr show the background;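 note: 11-residue human phosphosite peptides and single-mutation variants displayed on the E. coli surface, counted by deep sequencing, each peptide's frequency after selection divided by its frequency in the unselected input library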;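 note: frequency after pTyr selection over input frequency; kinase dosed for 20-30% of maximal phosphorylation in three min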
Decision: phosphorylation enrichment compared against 0.7; not below it gives rule met, below it gives rule not met.

Use these answered entries as a reference point.
seq text	assigned class
SFCFRYRCAPR [SUMF1_Y344_A348P_YF]	rule not met
SDVCMYRKNIF [SYNE2_Y570_YF]	rule not met
CPYNLYAEQLS [HGD_Y40]	rule met
NDLMEYAKQHG [ASS1_Y163]	rule not met

Request: Check if phosphorylation enrichment >= 0.7 (inclusive). Item: EEGNPYYSGAR [MCCC2_Y520_S523G]
Response: rule not met

Request: Can you handle VSYGEYRYRSV [CFTR_Y515_D513G] next?
Response: rule not met

Request: What do you get for AEFGLYGAMVW [VSX2_Y222_R227W_YF] ?
Response: rule met

Request: Try this sequence next: GVRLYYRVMES [RB1_Y454]
Response: rule not met

Request: Next: QVQQIYSDSDL [MIB1_Y376_R371Q]
Response: rule met

Request: Follow-up entry: RSSKMYPKTRS [LPL_Y329_L330P]
Response: rule not met

Request: Note, next up: RTLIRYANLSN [BEST1_Y131_G135S]
Response: rule met

Request: Next sequence up: QEALEYFMKQM [PIK3CA_Y1038]
Response: rule not met

Request: Try this sequence next: LIFVSYDDWDF [GRIN2A_Y281_S278F_YF]
Response: rule met

Request: What do you get for PLGVLYKVKVY [PTS_Y128_V124L] ?
Response: rule not met

Request: Query QSPQLYKQLCI [DARS1_Y253_M256L] next
Response: rule not met
